FYI, the data here is from PubChem BioAssay (EPA / NIEHS).

- Read-out: Epidermal growth factor receptor (EGFR), EGFR (gene 1956)
- Test Protocol: BSK_hDFCGF_EGFR: BioMAP Diversity Plus: hDFCGF Assay for Epidermal growth factor receptor (EGFR) Biomarker Activity (AID 2283057)
- Test Settings: primary human foreskin fibroblasts; actives raise or lower the signal
Active and inactive are the calls of the source. The calls were made as follows: active = hit-call score of the fitted dose curve at least 0.9, where 1 is the maximum; inactive = score below 0.9.
Select the correct class. Options are active, inactive and nothing else.

Below, 2 compounds whose answers are already recorded.
[
  {
    "Compound": "CCCCC(CC)COCCC#N (configuration not stated)",
    "Answer Label": "inactive"
  },
  {
    "Compound": "CCc1c(C)cc(N)c(CC)c1N",
    "Answer Label": "inactive"
  }
]

So what was the verdict on "CCn1c2ccccc2c2cc(N)ccc21" in this test?
inactive

Answer briefly: the call reported for "Cc1ccc2n[nH]nc2c1" in this assay.
inactive

Hi, sorry to bother you, what did the test record for "CC(C)Oc1ccccc1O" ?
inactive

---

- Read-out: Tissue Factor, F3 (gene 2152)
- Test Protocol: BSK_CASM3C_TissueFactor: BioMAP Diversity Plus: CASM3C Assay for Tissue Factor Biomarker Activity (AID 2283052);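 also: cell surface tissue factor protein level read by ELISA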
- Test Settings: primary human coronary artery smooth muscle cells; actives raise or lower the signal
Calls of active or inactive are those of the source. How the source made its calls: active means hit-call score of the fitted dose curve at least 0.9, where 1 is the maximum; inactive means score below 0.9.
// one of 1 = active, -1 = inactive, no free text

Field: outcome | Entry: CC1COc2ccccc2N1C(=O)C(Cl)Cl (stereo unspecified)
1

Call for entry "CCCCCCCCC=O" :
-1

---

- Tested System: mouse Estrogen Receptor alpha (Era), Esr1 (gene 13982) (UniProt P19785)
- Sequence (P19785 whole entry, looked up): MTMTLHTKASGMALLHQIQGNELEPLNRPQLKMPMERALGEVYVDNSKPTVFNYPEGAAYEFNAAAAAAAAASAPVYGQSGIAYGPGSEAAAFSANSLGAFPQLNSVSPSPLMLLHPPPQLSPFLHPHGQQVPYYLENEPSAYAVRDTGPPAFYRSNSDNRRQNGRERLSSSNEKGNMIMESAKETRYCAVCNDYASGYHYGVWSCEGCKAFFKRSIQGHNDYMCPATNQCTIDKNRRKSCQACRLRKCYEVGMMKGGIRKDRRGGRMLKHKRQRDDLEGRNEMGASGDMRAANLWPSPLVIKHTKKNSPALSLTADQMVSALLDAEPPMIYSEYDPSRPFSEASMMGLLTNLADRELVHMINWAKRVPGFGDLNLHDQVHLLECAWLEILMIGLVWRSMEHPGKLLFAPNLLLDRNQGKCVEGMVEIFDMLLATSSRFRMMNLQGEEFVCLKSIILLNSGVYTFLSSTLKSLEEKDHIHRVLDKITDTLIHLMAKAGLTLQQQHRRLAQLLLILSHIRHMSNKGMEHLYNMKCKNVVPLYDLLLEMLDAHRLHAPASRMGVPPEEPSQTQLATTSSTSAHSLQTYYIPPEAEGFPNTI
- Test Protocol: NVS_NR_mERa: NovaScreen (NVS) Nuclear Receptor Binding Assay for mouse Estrogen Receptor alpha (Era) (AID 2283378);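 also: hit means loss of bound radioligand signal relative to DMSO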
Records with an inconclusive call do not appear. The source made the active and inactive calls. Rule for the calls: active = hit-call score of the fitted dose curve at least 0.9, where 1 is the maximum; inconclusive = response in the unintended direction; inactive = score below 0.9.
One label from this list, please: active, inactive

Answered examples (3):
[
  {
    "Compound": "CC1COc2ccccc2N1C(=O)C(Cl)Cl (stereo not given)",
    "Answer Label": "active"
  },
  {
    "Compound": "Clc1ccc2c(c1)C(N1CCNCC1)=Nc1ccccc1O2",
    "Answer Label": "inactive"
  },
  {
    "Compound": "O=Nc1ccc(Nc2ccccc2)cc1",
    "Answer Label": "active"
  }
]

Per the records of this test, what outcome belongs to "CCCc1c(OCCCOc2ccc(OCC(=O)O)cc2)ccc(C(C)=O)c1O" ?
inactive

Identify the outcome logged in this assay for the compound shown: "CCCCCCCCCC=O"
inactive

---

- Read-out: Human Leukocyte Antigen - DR isotype (HLADR), HLA-DRA (gene 3122)
- Test Protocol: BSK_BE3C_HLADR: BioMAP Diversity Plus: BE3C Assay for Human Leukocyte Antigen - DR isotype (HLADR) Biomarker Activity (AID 2283032)
- Test Settings: primary human bronchial epithelial cells; actives raise or lower the signal
Active and inactive are the calls of the source. The calls were made as follows: active = hit-call score of the fitted dose curve at least 0.9, where 1 is the maximum; inactive = score below 0.9.
Outcomes you can answer with include only these: t = active, f = inactive

[
  {
    "Compound": "O=C(O)c1cn(C2CC2)c2cc(N3CCNCC3)c(F)cc2c1=O",
    "Answer Label": "f"
  },
  {
    "Compound": "C[C@H]1C[C@@H]2[C@H]([C@@H](O)C[C@@]3(C)[C@H]2CC[C@]3(O)C(=O)CO)[C@@]2(C)C=CC(=O)C=C12",
    "Answer Label": "f"
  },
  {
    "Compound": "CCn1c2ccccc2c2cc(N)ccc21",
    "Answer Label": "t"
  },
  {
    "Compound": "O=C1CCCCCCCCCCCCCCO1",
    "Answer Label": "t"
  },
  {
    "Compound": "Cc1cc(C2(c3cc(C)c(O)cc3C)OS(=O)(=O)c3ccccc32)c(C)cc1O",
    "Answer Label": "f"
  }
]

# fetch the recorded call for CCCCC(CC)COC(=O)/C=C\C(=O)OCC(CC)CCCC (stereo not drawn) here
f

Kindly provide the recorded test outcome for the following compound: CC(=O)OCCC(C)CC(C)(C)C (stereo not drawn)
f

How was "CC(C)c1ccc(C(C)C)cc1" classified in this test?
t
